B1: LINE1-full (parent)
chain: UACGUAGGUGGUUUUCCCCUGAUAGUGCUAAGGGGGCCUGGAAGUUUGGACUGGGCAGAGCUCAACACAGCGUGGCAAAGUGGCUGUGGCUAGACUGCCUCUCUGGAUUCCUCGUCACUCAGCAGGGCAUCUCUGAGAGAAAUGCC

Variants of: B1
Assay: self-cleavage, relative activity (ratio to wild type); higher = more cleavage; in vitro, sequencing; the parent is a self-cleaving ribozyme
self-cleavage reference
# print the numeric value only

Study these solved cases before continuing.
U9A G36U : 0.71
A31C U134C : 1
U112A U119C : 2.45

Measured self-cleavage of U91G A138G : 0

Measured self-cleavage of U15C U39A : 1.56

Measured self-cleavage of U26C G93A : 0.03

Measured self-cleavage of G36U A77G : 2.39

Measured self-cleavage of C38A G55C : 0.07

Measured self-cleavage of U13A U91C : 0.89

Measured self-cleavage of G53U U62C : 0.08

Measured self-cleavage of U39A C111A : 1.55

Measured self-cleavage of A31U A138U : 1.4

Measured self-cleavage of A57G A94U : 0.19

Measured self-cleavage of G40U U100A : 0.89

Measured self-cleavage of U115A A117U : 1.82

Measured self-cleavage of G36A C95G : 0.02
